system: Blumeria graminis f. sp. tritici; experiment: Test C: wheat powdery mildew, preventive spray on wheat seedlings; assay type: in vivo; conditions: 50 ppm, rated after 8 days, 100 = 100% disease control, 0 = no control
What Test C disease control rating (wheat powdery mildew) was measured for each of the following?

**Q:** What Test C disease control rating (wheat powdery mildew) value was documented for this molecule, Cc1nn(C)c(Nc2c(Cl)cccc2[N+](=O)[O-])c1-c1c(F)cc(F)cc1Br ?
**A:** 98%

**Q:** What value of Test C disease control rating (wheat powdery mildew) has been reported for the following molecule? COc1ccc(Nc2c(-c3ccc(Cl)cc3Cl)c(C)nn2C)c([N+](=O)[O-])c1
**A:** 39%

**Q:** # lookup: Test C disease control rating (wheat powdery mildew) of Cc1nn(C)c(Nc2ccc(Br)cc2[N+](=O)[O-])c1-c1ccc(F)cc1Cl
**A:** 84%

**Q:** So what's the measured Test C disease control rating (wheat powdery mildew) for this one? COc1cc(F)c(-c2c(C)nn(C)c2Nc2c(Cl)cc(F)cc2[N+](=O)[O-])c(F)c1
**A:** 99%

====

tested on: Septoria tritici; experiment: Test A: wheat leaf blotch, preventive spray on wheat seedlings; type: in vivo; settings: 50 ppm, 100 = 100% disease control, 0 = no control relative to controls
Provide the recorded Test A disease control rating (wheat leaf blotch) for the entries that follow.
Write down the numeric answer in % and omit the unit.

**Q:** Returns the measured Test A disease control rating (wheat leaf blotch) for the input molecule. Input: Cc1nn(C)c(Nc2ccc(Br)cc2[N+](=O)[O-])c1-c1ccc(F)cc1Cl [Compound 91]
**A:** 99

**Q:** Data request, read-out Test A disease control rating (wheat leaf blotch), for Cc1cccc([N+](=O)[O-])c1Nc1c(-c2ccc(Cl)cc2Cl)c(C)nn1C [Compound 144]
**A:** 100

**Q:** Any idea what its Test A disease control rating (wheat leaf blotch) is? The molecule is Cc1cc(Cl)c(Nc2c(-c3ccc(F)cc3Br)c(C)nn2C)c([N+](=O)[O-])c1 [Compound 181]
**A:** 100

**Q:** Any idea what its Test A disease control rating (wheat leaf blotch) is? The molecule is COc1cc(F)c(Nc2c(-c3ccc(Cl)cc3Cl)c(C)nn2C)c([N+](=O)[O-])c1 [Compound 138]
**A:** 100

**Q:** Returns the measured Test A disease control rating (wheat leaf blotch) for the input molecule. Input: Cc1nn(C)c(Nc2ccc(OCC(F)F)cc2[N+](=O)[O-])c1-c1ccc(F)cc1Cl [Compound 36]
**A:** 100

**Q:** Tell me the measured Test A disease control rating (wheat leaf blotch) of Cc1nn(C)c(Nc2c(F)cccc2[N+](=O)[O-])c1-c1ccc(Cl)cc1Cl [Compound 69] , please.
**A:** 100

**Q:** Record request: Test A disease control rating (wheat leaf blotch) value, item COc1cc(F)c(Nc2c(-c3ccc(F)cc3Cl)c(C)nn2C)c([N+](=O)[O-])c1 [Compound 85]
**A:** 100

**Q:** Quick check: Test A disease control rating (wheat leaf blotch) of COc1ccc(Nc2c(-c3ccc(F)cc3Cl)c(C)nn2C)c([N+](=O)[O-])c1 [Compound 119] ?
**A:** 100

**Q:** Give its Test A disease control rating (wheat leaf blotch) value. Item: Cc1nn(C)c(Nc2c(F)cc(Br)cc2[N+](=O)[O-])c1-c1ccc(C#N)cc1Cl [Compound 155]
**A:** 99

**Q:** Fill in the blank: the reported Test A disease control rating (wheat leaf blotch) of CCc1nn(C)c(Nc2c(F)cc(C)cc2[N+](=O)[O-])c1-c1ccc(F)cc1Cl [Compound 137] is ____.
**A:** 100

**Q:** Please look up its Test A disease control rating (wheat leaf blotch): Cc1nn(C)c(Nc2c(Cl)cccc2[N+](=O)[O-])c1-c1ccc(Cl)cc1Cl [Compound 133]
**A:** 100

**Q:** Requested read-out: Test A disease control rating (wheat leaf blotch). Entry: Cc1nn(C)c(Nc2c(Cl)cccc2[N+](=O)[O-])c1-c1c(F)cc(F)cc1Cl [Compound 152]
**A:** 99

**Q:** What does the data say about its Test A disease control rating (wheat leaf blotch)? Entry: COc1cc(F)c(-c2c(C)nn(C)c2Nc2c(Cl)cc(F)cc2[N+](=O)[O-])c(F)c1 [Compound 2]
**A:** 100

**Q:** Query (molecule): Cc1nn(C)c(Nc2ccccc2[N+](=O)[O-])c1-c1ccc(F)cc1Cl [Compound 126] ; field requested: Test A disease control rating (wheat leaf blotch)
**A:** 98

**Q:** Query: Test A disease control rating (wheat leaf blotch); subject: COc1cc(Cl)c(Nc2c(-c3ccc(F)cc3F)c(C)nn2C)c([N+](=O)[O-])c1 [Compound 141]
**A:** 99

**Q:** I am curious: what Test A disease control rating (wheat leaf blotch) value has been reported for Cc1ccc(Nc2c(-c3ccc(C#N)cc3Cl)c(C)nn2C)c([N+](=O)[O-])c1 [Compound 14] ?
**A:** 100

====

tested on: Blumeria graminis f. sp. tritici; test: Test C: wheat powdery mildew, preventive spray on wheat seedlings; type: in vivo; settings: 50 ppm, rated after 8 days, 100 = 100% disease control, 0 = no control
Quantity: Test C disease control rating (wheat powdery mildew) (%)
Express the result in % but write the number alone.

**Q:** Hello, I am looking for reported Test C disease control rating (wheat powdery mildew) with Blumeria graminis f. sp. tritici for Cc1ccc(Nc2c(-c3c(F)cccc3F)c(C)nn2C)c([N+](=O)[O-])c1 [Compound 105] . Could you help?
**A:** 86

**Q:** Report Test C disease control rating (wheat powdery mildew) for Cc1nn(C)c(Nc2c(Cl)cc(F)cc2[N+](=O)[O-])c1-c1ccc(F)cc1Br [Compound 43] tested on Blumeria graminis f. sp. tritici.
**A:** 97

**Q:** Request: Test C disease control rating (wheat powdery mildew), test system Blumeria graminis f. sp. tritici, entry Cc1cc(F)c(Nc2c(-c3ccc(F)cc3F)c(C)nn2C)c([N+](=O)[O-])c1 [Compound 178]
**A:** 99

**Q:** Reported Test C disease control rating (wheat powdery mildew) for Blumeria graminis f. sp. tritici, given COc1ccc(Nc2c(-c3ccc(F)cc3Br)c(C)nn2C)c([N+](=O)[O-])c1 [Compound 52] ?
**A:** 90

**Q:** Please state recorded Test C disease control rating (wheat powdery mildew) (tested on Blumeria graminis f. sp. tritici) of Cc1nn(C)c(Nc2c(Br)cccc2[N+](=O)[O-])c1-c1ccc(C#N)cc1Cl [Compound 125]
**A:** 0

**Q:** Provide the documented Test C disease control rating (wheat powdery mildew) with Blumeria graminis f. sp. tritici as the system for COCc1ccc(Nc2c(-c3ccc(F)cc3Cl)c(C)nn2C)c([N+](=O)[O-])c1 [Compound 4]
**A:** 76

**Q:** Form field: Test C disease control rating (wheat powdery mildew) recorded for Cc1nn(C)c(Nc2ccccc2[N+](=O)[O-])c1-c1c(F)cccc1Cl [Compound 136] with Blumeria graminis f. sp. tritici (enter value)
**A:** 88

**Q:** Look up Test C disease control rating (wheat powdery mildew) with Blumeria graminis f. sp. tritici for this compound: Cc1cc(F)c(Nc2c(-c3ccc(F)cc3Br)c(C)nn2C)c([N+](=O)[O-])c1 [Compound 40]
**A:** 100

**Q:** Find the measured Test C disease control rating (wheat powdery mildew): item Cc1nn(C)c(Nc2c(F)cc(Cl)cc2[N+](=O)[O-])c1-c1c(F)cccc1F [Compound 98] , target or system Blumeria graminis f. sp. tritici.
**A:** 93

**Q:** Requested read-out Test C disease control rating (wheat powdery mildew), target or system Blumeria graminis f. sp. tritici, entry Cc1nn(C)c(Nc2c(Cl)cc(Br)cc2[N+](=O)[O-])c1-c1ccc(F)cc1F [Compound 55]
**A:** 90

**Q:** Record lookup: for Blumeria graminis f. sp. tritici, what Test C disease control rating (wheat powdery mildew) belongs to Cc1nn(C)c(Nc2c(F)cccc2[N+](=O)[O-])c1-c1c(F)cccc1Cl [Compound 25] ?
**A:** 99

**Q:** Form field - read-out: Test C disease control rating (wheat powdery mildew); system: Blumeria graminis f. sp. tritici; submitted item: COc1cc(F)c(-c2c(C)nn(C)c2Nc2c(F)cc(Cl)cc2[N+](=O)[O-])c(F)c1 [Compound 86]
**A:** 98

**Q:** Form entry - test system: Blumeria graminis f. sp. tritici; read-out: Test C disease control rating (wheat powdery mildew); compound: COc1ccc(Nc2c(-c3ccc(F)cc3Cl)c(C)nn2C)c([N+](=O)[O-])c1 [Compound 119]
**A:** 99

**Q:** // map COc1ccc(Nc2c(-c3ccc(C#N)cc3F)c(C)nn2C)c([N+](=O)[O-])c1 [Compound 179] to recorded Test C disease control rating (wheat powdery mildew) (system: Blumeria graminis f. sp. tritici)
**A:** 93

**Q:** Param readout = Test C disease control rating (wheat powdery mildew); param system = Blumeria graminis f. sp. tritici; param query = Cc1nn(C)c(Nc2ccccc2[N+](=O)[O-])c1-c1c(F)cc(F)cc1Br [Compound 154] ; response: value
**A:** 98

**Q:** # query: Test C disease control rating (wheat powdery mildew) | item COc1ccc(Nc2c(-c3c(F)cccc3F)c(C)nn2C)c([N+](=O)[O-])c1 [Compound 87] | system: Blumeria graminis f. sp. tritici
**A:** 98

Data provenance: patent US12398107B2
